Test system: Runx2
Test: Runx2 activity, 6xOSE2-Luc luciferase reporter in transfected C2C12 cells
Assay type: cell-based, Mouse
Settings: Mus musculus, 10 μM, 24 hrs, read-out: luciferase activity relative to control set as 1
Quick reference: fold induction at 10 µM of the listed items.
Measured Quantity: fold induction at 10 µM

| Compound | Experimental Result |
| --- | --- |
| Cc1c(C(=O)NCCCCCC(=O)Nc2ccccc2N)cccc1-c1ccncc1 | 7.8 |
| COc1cc2c(c(-c3cccnc3)c1OC)CN(Cc1ccc(C(=O)Nc3cc(-c4cccs4)ccc3N)cc1)C2=O | 11.4 |
| COc1cc2c(c(-c3ccc(C(F)(F)F)cc3)c1OC)CN(CCCCCC(=O)Nc1ccccc1N)C2=O | 14.2 |
| O=C(CCCCCN1Cc2c(cccc2-c2cc(F)cc(F)c2)C1=O)NO | 22.3 |
| Nc1ccccc1NC(=O)c1ccc(CN2Cc3c(cccc3-c3ccc(C(F)(F)F)cc3)C2=O)cc1 | 9.3 |
| COc1ccc(-c2cccc(C(=O)NCCCCCC(=O)Nc3ccccc3N)c2C)c(OC)c1 | 6 |
| N#Cc1ccc(-c2cccc3c2CN(Cc2ccc(C(=O)Nc4ccccc4N)cc2)C3=O)cc1 | 19.3 |
| COc1ccc(-c2ccc3c(c2)CN(CCCCCC(=O)NO)C3=O)c(OC)c1 | 22.1 |
| Nc1ccccc1NC(=O)CCCCCN1Cc2c(Br)cccc2C1=O | 8 |
| Nc1ccccc1NC(=O)c1ccc(CN2Cc3cc(-c4cccnc4)ccc3C2=O)cc1 | 14.2 |
| O=C(CCCCCN1Cc2cc(-c3ccc(C(F)(F)F)cc3)ccc2C1=O)NO | 5.5 |
| O=C(CCCCCN1Cc2cc(-c3ccccc3)ccc2C1=O)NO | 28.1 |
| Cc1cc(C)cc(-c2ccc3c(c2)CN(Cc2ccc(C(=O)Nc4ccccc4N)cc2)C3=O)c1 | 5.5 |
| Cc1ccc(-c2cccc3c2CN(Cc2ccc(C(=O)Nc4ccccc4N)cc2)C3=O)cc1F | 22.5 |
| O=C(CCCCCN1Cc2cc(-c3cccnc3)ccc2C1=O)NO | 8.9 |
| O=C(CCCCCN1Cc2c(cccc2-c2ccc(C(F)(F)F)cc2)C1=O)NO | 1.3 |
| Cc1c(Br)cccc1C(=O)NCCCCCC(=O)Nc1ccccc1N | 2.7 |

###

Documented fold induction at 5 µM across a set of compounds
System: Runx2
Test: Runx2 activity, 6xOSE2-Luc luciferase reporter in transfected C2C12 cells
Format: cell-based, Mouse
Settings: Mus musculus, 5.0 μM, 24 hrs, read-out: luciferase activity relative to control set as 1

| Compound | fold induction at 5 µM |
| --- | --- |
| Nc1ccccc1NC(=O)c1ccc(CN2Cc3c(cccc3-c3ccc(Oc4ccccc4)cc3)C2=O)cc1 [Example 29] | 5.6 |
| COc1ccc(-c2ccc3c(c2)CN(CCCCCC(=O)NO)C3=O)c(OC)c1 [Example 50] | 5 |
| CC(=O)Nc1cccc(-c2cccc3c2CN(Cc2ccc(C(=O)Nc4ccccc4N)cc2)C3=O)c1 [Example 23] | 5.1 |
| O=C(CCCCCN1Cc2cc(-c3ccccc3)ccc2C1=O)NO [Example 49] | 10.6 |
| Cc1c(Br)cccc1C(=O)NCCCCCC(=O)Nc1ccccc1N [Example 80] | 1.8 |

###

Tested on: Runx2
Test: Runx2 activity, 6xOSE2-Luc luciferase reporter in transfected C2C12 cells
Type: cell-based, Mouse
Conditions: Mus musculus, 20 μM, 24 hrs, read-out: luciferase activity relative to control set as 1
// values below are reported fold induction at 20 µM

| Compound | fold induction at 20 µM |
| --- | --- |
| COc1ccc(-c2cccc3c2CN(Cc2ccc(C(=O)Nc4ccccc4N)cc2)C3=O)cc1OC | 9.2 |
| Cc1c(Br)cccc1C(=O)NCCCCCC(=O)Nc1ccccc1N | 5.4 |
| Nc1ccccc1NC(=O)c1ccc(CN2Cc3c(cccc3-c3cc(F)cc(F)c3)C2=O)cc1 | 15.8 |
| Nc1ccccc1NC(=O)c1ccc(CN2Cc3c(cccc3-c3ccc(C(F)(F)F)cc3)C2=O)cc1 | 7.2 |

###

Tested on: Runx2
Test: Runx2 activity, 6xOSE2-Luc luciferase reporter in transfected C2C12 cells
Type: cell-based, Mouse
Conditions: Mus musculus, 20 μM, 24 hrs, read-out: luciferase activity relative to control set as 1
Answer not satisfied if fold induction at 20 µM is under 20, and satisfied if it is 20 or more.

| Compound | Category Label |
| --- | --- |
| COc1cc2c(c(-c3cccnc3)c1OC)CN(Cc1ccc(C(=O)Nc3ccccc3N)cc1)C2=O | satisfied |
| COc1cc2c(c(-c3cccnc3)c1OC)CN(CCCCCC(=O)Nc1ccccc1N)C2=O | satisfied |
| COc1cc(C(=O)NCc2ccc(C(=O)Nc3ccccc3N)cc2)c(C)c(-c2cccnc2)c1OC | satisfied |
| NC(=O)c1cccc(-c2cccc3c2CN(Cc2ccc(C(=O)Nc4ccccc4N)cc2)C3=O)c1 | not satisfied |
| Cc1c(C(=O)NCCCCCC(=O)NO)cccc1-c1ccccc1 | not satisfied |
| Cc1c(Br)cccc1C(=O)NCc1ccc(C(=O)Nc2ccccc2N)cc1 | not satisfied |
| O=C(CCCCCN1Cc2cc(-c3ccc(C(F)(F)F)cc3)ccc2C1=O)NO | not satisfied |
| COc1ccc(-c2cccc3c2CN(Cc2ccc(C(=O)Nc4ccccc4N)cc2)C3=O)cc1F | satisfied |
| COc1cc2c(c(-c3ccccc3)c1OC)CN(CCCCCC(=O)Nc1ccccc1N)C2=O | satisfied |
| Nc1ccc(-c2cccs2)cc1NC(=O)CCCCCN1Cc2c(cccc2-c2cncnc2)C1=O | not satisfied |
| Nc1ccccc1NC(=O)c1ccc(CN2Cc3c(cccc3-c3cncnc3)C2=O)cc1 | not satisfied |
| COc1ccc(-c2cccc3c2CN(Cc2ccc(C(=O)Nc4ccccc4N)cc2)C3=O)cn1 | not satisfied |
| COc1cc2c(c(-c3ccccc3)c1OC)CN(Cc1ccc(C(=O)Nc3ccccc3N)cc1)C2=O | satisfied |
| Nc1ccccc1NC(=O)c1ccc(CN2Cc3cc(-c4cncnc4)ccc3C2=O)cc1 | satisfied |
| Nc1ccccc1NC(=O)c1ccc(CN2Cc3c(cccc3-c3ccc4ccccc4c3)C2=O)cc1 | not satisfied |
| COc1cc(C(=O)NCc2ccc(C(=O)Nc3ccccc3N)cc2)c(C)c(-c2cccc(N)c2)c1OC | satisfied |
| O=C(CCCCCN1Cc2cc(-c3ccccc3)ccc2C1=O)NO | satisfied |
| COc1ccc(-c2cccc3c2CN(CCCCCC(=O)NO)C3=O)c(OC)c1 | satisfied |
| COc1cc2c(c(-c3cc(C)cc(C)c3)c1OC)CN(CCCCCC(=O)Nc1ccccc1N)C2=O | satisfied |
| Nc1ccccc1NC(=O)c1ccc(CN2Cc3cc(-c4cccnc4)ccc3C2=O)cc1 | not satisfied |
| Cc1cc(C(=O)NCCCCCC(=O)Nc2ccccc2N)ccc1-c1ccccc1 | not satisfied |
| COc1cc2c(c(-c3ccc(C(F)(F)F)cc3)c1OC)CN(CCCCCC(=O)Nc1ccccc1N)C2=O | satisfied |
| COc1cc(C(=O)NCc2ccc(C(=O)Nc3ccccc3N)cc2)c(C)c(-c2ccc(C(F)(F)F)cc2)c1OC | satisfied |
| Nc1ccccc1NC(=O)c1ccc(CN2Cc3c(cccc3-c3ccc4c(c3)OCO4)C2=O)cc1 | not satisfied |
| Cc1cc(C(=O)NCCCCCC(=O)Nc2ccccc2N)ccc1Br | not satisfied |
| Nc1ccccc1NC(=O)c1ccc(CN2Cc3cc(Br)ccc3C2=O)cc1 | not satisfied |
| Cc1c(C(=O)NCc2ccc(C(=O)Nc3ccccc3N)cc2)cccc1-c1cncnc1 | satisfied |
| COc1ccc(-c2c3c(cc(OC)c2OC)C(=O)N(Cc2ccc(C(=O)Nc4ccccc4N)cc2)C3)cc1 | not satisfied |
| Nc1ccccc1NC(=O)c1ccc(CN2Cc3cc(-c4ccc(C(F)(F)F)cc4)ccc3C2=O)cc1 | not satisfied |
| Cc1cc(C)cc(-c2cccc3c2CN(Cc2ccc(C(=O)Nc4ccccc4N)cc2)C3=O)c1 | not satisfied |

###

Some molecules, each annotated with its measured fold induction at 5 µM.
System: Runx2
Assay: Runx2 activity, 6xOSE2-Luc luciferase reporter in transfected C2C12 cells
Type: cell-based, Mouse
Conditions: Mus musculus, 5.0 μM, 24 hrs, read-out: luciferase activity relative to control set as 1

| Compound | fold induction at 5 µM |
| --- | --- |
| Nc1ccccc1NC(=O)c1ccc(CN2Cc3c(cccc3-c3ccc(-c4ccccc4)cc3)C2=O)cc1 | 11.3 |
| COc1cc(C(=O)NCc2ccc(C(=O)Nc3ccccc3N)cc2)c(C)c(-c2ccc(C(F)(F)F)cc2)c1OC | 12.8 |
| COc1ccc(-c2ccc(C(=O)NCCCCCC(=O)Nc3ccccc3N)cc2C)c(OC)c1 | 2.6 |
| Nc1ccccc1NC(=O)c1ccc(CN2Cc3cc(-c4ccccc4)ccc3C2=O)cc1 | 8.9 |
| COc1ccc(-c2cccc3c2CN(CCCCCC(=O)NO)C3=O)cc1OC | 1.1 |
| COc1cc2c(c(-c3ccccc3)c1OC)CN(Cc1ccc(C(=O)Nc3ccccc3N)cc1)C2=O | 24.8 |
| O=C(CCCCCN1Cc2c(cccc2-c2cccnc2)C1=O)NO | 1.3 |
| N#Cc1ccc(-c2ccc3c(c2)CN(Cc2ccc(C(=O)Nc4ccccc4N)cc2)C3=O)cc1 | 15.7 |
| COc1ccc(-c2cccc3c2CN(Cc2ccc(C(=O)Nc4ccccc4N)cc2)C3=O)cc1OC | 12.3 |
| Nc1ccccc1NC(=O)c1ccc(CN2Cc3c(cccc3-c3ccc(F)cc3)C2=O)cc1 | 20.5 |
| Nc1ccccc1NC(=O)c1ccc(CN2Cc3cc(-c4ccc5ccccc5c4)ccc3C2=O)cc1 | 2 |
| Cc1cc(C(=O)NCCCCCC(=O)Nc2ccccc2N)ccc1Br | 6.7 |
| Cc1cc(C(=O)NCCCCCC(=O)Nc2ccccc2N)ccc1-c1ccccc1 | 1.9 |
| Nc1ccccc1NC(=O)c1ccc(CN2Cc3c(cccc3-c3ccc(C(F)(F)F)cc3)C2=O)cc1 | 8 |
| Cc1c(C(=O)NCCCCCC(=O)Nc2ccccc2N)cccc1-c1cccnc1 | 2.1 |
| COc1ccc(-c2cccc(C(=O)NCCCCCC(=O)NO)c2C)c(OC)c1 | 1.9 |
| Nc1ccccc1NC(=O)c1ccc(CN2Cc3cc(-c4ccc5c(c4)OCO5)ccc3C2=O)cc1 | 9.4 |
